The measurements presented in this section are drawn from patent US20240116985A1.

Some compounds, each annotated with its measured EC50.
- experimental_target: full-length B-Catenin (Uniprot ID P35222) (Homo sapiens)
- Construct: 65 nM full-length B-Catenin (Uniprot ID P35222)
- Sequence (P35222 1-781): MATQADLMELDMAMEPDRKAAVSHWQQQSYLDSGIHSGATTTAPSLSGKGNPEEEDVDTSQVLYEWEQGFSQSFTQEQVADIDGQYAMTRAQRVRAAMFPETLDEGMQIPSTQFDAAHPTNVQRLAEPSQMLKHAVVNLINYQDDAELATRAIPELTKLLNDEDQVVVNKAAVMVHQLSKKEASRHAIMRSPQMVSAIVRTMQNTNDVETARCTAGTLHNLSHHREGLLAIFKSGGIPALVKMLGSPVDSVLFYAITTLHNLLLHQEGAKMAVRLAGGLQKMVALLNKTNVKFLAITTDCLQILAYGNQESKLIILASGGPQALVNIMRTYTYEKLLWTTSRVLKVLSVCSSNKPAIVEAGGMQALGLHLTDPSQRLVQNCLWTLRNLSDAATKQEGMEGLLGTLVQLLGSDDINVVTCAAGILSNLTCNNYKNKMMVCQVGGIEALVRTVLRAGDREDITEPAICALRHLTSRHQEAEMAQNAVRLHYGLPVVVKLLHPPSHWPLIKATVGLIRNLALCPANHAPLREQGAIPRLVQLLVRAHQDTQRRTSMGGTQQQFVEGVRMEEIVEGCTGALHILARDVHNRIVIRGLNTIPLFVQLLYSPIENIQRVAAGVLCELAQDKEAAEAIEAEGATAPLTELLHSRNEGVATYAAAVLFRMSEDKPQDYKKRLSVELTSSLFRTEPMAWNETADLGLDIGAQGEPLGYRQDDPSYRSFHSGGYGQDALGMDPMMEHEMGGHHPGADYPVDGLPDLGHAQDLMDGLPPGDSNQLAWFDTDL
- assay_protocol: Alphascreen binding assay (beta-catenin / biotin-TCF4 10-53)
Note: unit µM is implicit; provide only the numeric part.

compound="CC(=O)N[C@@H](Cc1ccccc1)C(=O)N[C@@H](CC(=O)O)C(=O)N[C@@H](C)C(=O)N[C@]1(C)CCCCCCC=CCOC(=O)N2CC[C@@](C(=O)N[C@@H](Cc3ccccc3)C(=O)N[C@@H](Cc3c[nH]c4ccccc34)C(=O)N[C@@H](CCC(N)=O)C(N)=O)(C2)NC(=O)[C@H]([C@@H](C)O)NC(=O)[C@H](Cc2ccccc2)NC(=O)[C@H](C)NC(=O)[C@H](C)NC(=O)[C@H](CC(=O)O)NC(=O)[C@H](CC(=O)O)NC1=O [I-221]" unit_abbreviation=µM obs_value=6.58

Ask: Sample CCN(CC(=O)O)C[C@@H]1NC(=O)[C@H](CC(=O)O)NC(=O)C2(CCCC=CCCCCCC[C@@](C)(C(=O)N[C@@H](Cc3ccccc3)C(=O)N[C@@H](Cc3c[nH]c4ccccc34)C(=O)N[C@@H](CCC(N)=O)C(N)=O)NC(=O)[C@H](C(C)C)NC(=O)[C@H](Cc3ccccc3)NC(=O)[C@H](C)NC(=O)[C@H](C)NC1=O)CCCC=CC[C@]1(CCCN1C(C)=O)C(=O)N[C@@H](CC(=O)O)C(=O)N[C@@H](C)C(=O)N2 (some centres unmarked) [I-173] — what was its EC50?
Reply: 0.105
